Test system: CAKI-1 renal
Assay: NCI-60 one-dose screen, 48 h (100 = growth as untreated, 0 = no growth, -100 = all killed)
Details: 10 µM unless noted
This is part of a sample that, as a whole, favours compounds with a hit. Of some 83,000 tested, about 20% had one in any assay. Calls of active or inactive are those of the source. Rule for the calls: active = growth percent below 10; inactive = the rest.
Parameter measured: growth

{"columns": ["Compound", "Measured result"],
 "data": [
  ["CCC(C)(C)[C@H](NC(=O)[C@H]1CCCCN1C)C(=O)N(C)[C@H](C[C@@H](OC(C)=O)c1nc(C(=O)N[C@@H](Cc2ccccc2)C[C@H](C)C(=O)O)cs1)C(C)C", "29% (inactive)"],
  ["O=[As](O)(O)c1ccccc1[As](=O)(O)O", "94.5% (inactive)"],
  ["COC(=O)[C@@H](C)C[C@H](Cc1ccccc1)NC(=O)c1csc([C@@H](C[C@H](C(C)C)N(C)C(=O)[C@@H](NC(=O)[C@H]2CCCCN2C)C(C)C)OC(C)=O)n1", "12.8% (inactive)"],
  ["COC(=O)[C@H](C[C@H](Cc1ccccc1)NC(=O)c1csc([C@@H](C[C@H](C(C)C)N(C)C(=O)[C@@H](NC(=O)[C@H]2CCCCN2C)C(C)C)OC(C)=O)n1)NC(=O)OCc1ccccc1", "34.9% [8.5 µM] (inactive)"],
  ["Cc1cc(N(CCCl)CCCl)ccc1/C=N\\NC(=O)c1ccncc1", "33.2% (inactive)"],
  ["CC1(C)CN1P(=O)(N1CC1(C)C)N1CC1(C)C (stereo not drawn)", "110% (inactive)"],
  ["CC12CCC(O)CC1=CCC1C2CCC2(C)C(O)CCC12 (stereo not drawn)", "93.2% (inactive)"],
  ["CC(=O)Nc1ccc(NC(=O)c2ccc([As](O)O)cc2)cc1", "107% (inactive)"]
]}

====

Test system: MCF7 breast
Experiment: NCI-60 one-dose screen, 48 h
Settings: 10 µM unless noted
The panel holds about 83,000 compounds, 20% with a hit somewhere; the sample as a whole holds those more often. Active and inactive are the calls of the source. The calls were made as follows: active = growth percent below 10; inactive = the rest.
Labels: active, inactive

{"columns": ["Molecule", "Label value"],
 "data": [
  ["CCCCCN(CCCCC)CC(O)c1cc(Cl)ccc1OC (stereo unspecified)", "inactive"],
  ["CN(C)C1C(=O)C(C(N)=O)=C(O)C2(O)C(=O)C3=C(O)c4c(O)cccc4C(C)(O)C3CC12.[Cl][Sb]([Cl])[Cl] (stereo unspecified)", "inactive"],
  ["COc1cc(/C=C/[N+](=O)[O-])c([N+](=O)[O-])cc1OC", "active"],
  ["COc1cc2c(cc1OCCCCn1c(-c3cccs3)nc3ccccc31)N=C[C@@H]1CCCN1C2=O", "active"],
  ["CN1CC(CNC(=O)OCc2ccccc2)CC2c3cccc4c3c(cn4C)CC21 (stereo unspecified)", "active"],
  ["CSc1nc(Cl)cc(N2CC2)n1", "inactive"],
  ["COc1ccc(S(=O)(=O)N(Cc2ccc3c(c2)C=CC(C)(C)O3)c2ccccc2)cc1OC", "inactive"],
  ["O=[N+]([O-])c1cc([N+](=O)[O-])c(Cl)cc1Cl", "active"],
  ["O=[N+]([O-])c1cnc[nH]1", "inactive"],
  ["COC(=O)C12CC(NC(=O)c3csc([C@@H](C[C@H](C(C)C)N(C)C(=O)[C@@H](NC(=O)[C@H]4CCCCN4C)C(C)C)OC(C)=O)n3)(C1)C2", "inactive"],
  ["COC(=O)C1OC(Oc2ccc(N(CCCl)CCCl)cc2)C(OC(C)=O)C(OC(C)=O)C1OC(C)=O (stereo unspecified)", "inactive"],
  ["C/C(=C\\c1ccn(-c2ccccc2N)n1)[C@@H]1C[C@@H]2O[C@]2(C)CCC[C@H](C)[C@H](O)[C@@H](C)C(=O)C(C)(C)[C@@H](O)CC(=O)O1", "inactive"],
  ["O=C1N[C@@H]2[C@@H](O)[C@@H](O)[C@H](O)C[C@H]2c2cc3c(c(O)c21)OCO3", "active"],
  ["Fc1c[c-]c(-c2ccccn2)c(F)c1.[CH3-].[Pt+2].c1ccc([PH+](c2ccccc2)c2ccccn2)cc1", "active"],
  ["CC[C@H](C)[C@H](NC(=O)[C@H]1CCCCN1C)C(=O)N(C)[C@H](C[C@@H](OC(C)=O)c1cccc(C(=O)N[C@@H](Cc2ccccc2)C[C@H](C)C(=O)O)n1)C(C)C", "inactive"],
  ["COC(=O)[C@@H](C)C[C@H](Cc1ccccc1)NC(=O)c1csc([C@@H](C[C@H](C(C)C)N(C)C(=O)[C@@H](NC(=O)[C@H]2CCCCN2C)C2CCCCC2)OC(C)=O)n1", "inactive"],
  ["CCOC(=O)[C@@H](C)C[C@H](Cc1ccccc1)NC(=O)c1csc([C@@H](C[C@H](C(C)C)N(C)C(=O)[C@H](CC)NC(=O)[C@H]2CCCCN2C)OC(C)=O)n1", "inactive"],
  ["CC(C)CCC(=O)O[C@H]1CC[C@H]2[C@@H]3CCC4=CC(=O)CC[C@]4(C)[C@H]3CC[C@]12C", "inactive"],
  ["NC(N)=N/N=C\\c1c[nH]c2ccc(Br)cc12", "inactive"],
  ["CCC(O)(CN)c1ccccc1 (stereo unspecified)", "inactive"],
  ["O=C1CNC(c2ccccc2)c2cc(Cl)ccc2N1 (stereo unspecified)", "inactive"],
  ["Cc1ccc(C(Cc2ccccc2)NCCO)cc1 (stereo unspecified)", "inactive"],
  ["O=C(NCCN1CC1)C(=O)NCCN1CC1", "inactive"],
  ["COC(=O)[C@@H](C[C@H](Cc1ccccc1)NC(=O)c1csc([C@@H](C[C@H](C(C)C)N(C)C(=O)[C@@H](NC(=O)[C@H]2CCCCN2C)C(C)C)OC(C)=O)n1)NC(=O)OCc1ccccc1", "inactive"],
  ["CC(C)OC(=O)[C@H](C)NP(=O)(Oc1ccccc1)C1CCCN(O)C1=O (stereo partly specified)", "inactive"],
  ["CCC(=O)Nc1ccc(Cl)c(Cl)c1", "inactive"],
  ["c1ccc(COc2ccc3[nH]cc(CCN(Cc4ccccc4)Cc4ccccc4)c3c2)cc1", "inactive"],
  ["COc1ccc(C2=CC(c3ccc(OC)c(OC)c3)c3c(c4ccccc4oc3=O)O2)cc1OC (stereo unspecified)", "inactive"],
  ["CC1(C)N=C(N)N=C(N)N1c1cccc(CCCCc2ccc(Cl)c(S(=O)(=O)F)c2)c1", "inactive"],
  ["CNC(=O)Oc1ccc2c(c1)OCO2", "inactive"],
  ["CC(=O)OC1C(OC/C2=C/C3[C@@H](C(C)C)CC=C(C)[C@@H]3CC(OC(=O)/C=C/c3cn(C)cn3)[C@]3(C)C=C[C@@]2(O)O3)OCC(O)C1O (stereo partly specified)", "inactive"]
]}

====

System: K-562 leukemia
Experiment: NCI-60 one-dose screen, 48 h (100 = growth as untreated, 0 = no growth, -100 = all killed)
Details: 10 µM unless noted
This is part of a sample that, as a whole, favours compounds with a hit. Of some 83,000 tested, about 20% had one in any assay.

{"columns": ["Compound", "Target of assay", "Unit annotation", "growth"],
 "data": [
  ["O=C1C(N2CC2)=C(N2CC2)C(=O)C(N2CC2)=C1N1CC1", "K-562 leukemia", "%", 29.2],
  ["CC(C)(N)Cc1ccccc1", "K-562 leukemia", "%", 92.8],
  ["CCCCCCCC(=O)OCC(=O)[C@]1(O)Cc2c(O)c3c(c(O)c2[C@@H](OC2CC(N)C(O)C(C)O2)C1)C(=O)c1c(OC)cccc1C3=O (stereo partly drawn)", "K-562 leukemia", "%", -86.7],
  ["Cc1ccc(C(=O)NCCCOc2ccc(N)cc2Cl)cc1S(=O)(=O)F", "K-562 leukemia", "%", 91.9],
  ["CS(=O)(=O)CCN1CC2CCCC(C2)C1", "K-562 leukemia", "%", 113],
  ["O=C(CC1(O)C(=O)N(Cc2ccccc2)c2ccc(F)cc21)c1ccc(C(=O)NCC2CCC3(CC2)OOC2(CCCCC2)OO3)cc1 (stereo not drawn)", "K-562 leukemia", "%", -42.7],
  ["[Cl][Hg][c]1cc(Br)cc(Br)c1", "K-562 leukemia", "%", 6.31],
  ["O=C1C2CC=CCC2C(=O)N1SC(Cl)(Cl)Cl (stereo not drawn)", "K-562 leukemia", "%", 45.1],
  ["CN1C(=O)C23CC4(C56CC78SSC(CO)(C(=O)N7C5Nc5ccccc56)N(C)C8=O)c5ccccc5NC4N2C(=O)C1(CO)SS3 (stereo not drawn)", "K-562 leukemia", "%", -30.3],
  ["ClCCN(CCCl)Cc1ccc(Nc2ccnc3cc(Cl)ccc23)cc1", "K-562 leukemia", "%", 35.6],
  ["O=NNc1ccccn1", "K-562 leukemia", "%", 77.7],
  ["COC(=O)[C@@H](C)C[C@H](Cc1cn(C)c2ccccc12)NC(=O)c1csc([C@@H](C[C@H](C(C)C)N(C)C(=O)[C@@H](NC(=O)[C@H]2CCCCN2C)C(C)C)OC(C)=O)n1", "K-562 leukemia", "%", 6.65],
  ["Nc1ccc2c(c1)oc1ccccc12", "K-562 leukemia", "%", 89.5],
  ["CNC(=O)Oc1ccc(N(C)C)cc1C(C)C", "K-562 leukemia", "%", 129],
  ["O=C1NC(=O)C(=Cc2cn(CCCCCCn3c4ccccc4c(=O)c4ccccc43)c3ccccc23)C(=O)N1", "K-562 leukemia", "%", 77.4],
  ["Fc1ccc2c(c1)c(-c1nc(-c3c[nH]c4ncccc34)cs1)cn2CCCCN1CCCCC1", "K-562 leukemia", "%", -74.1],
  ["CCC(O)(CN)c1ccccc1 (stereo not drawn)", "K-562 leukemia", "%", 107],
  ["C#Cc1ccc2c(c1)C(c1ccccc1)=NCC(=O)N2C", "K-562 leukemia", "%", 15.6],
  ["C=CCCCCCCCCC(=O)[O-].C=CCCCCCCCCC(=O)[O-].[Zn+2]", "K-562 leukemia", "%", 92],
  ["CC(CC1CCCCC1)NCc1ccccc1 (stereo not drawn)", "K-562 leukemia", "%", 109],
  ["C[C@@]1(CCCCCCCCCc2ccc(O)cc2)C[C@]2(C)OC(=O)C[C@@H]2OO1", "K-562 leukemia", "%", 70],
  ["CC(C)[C@]12O[C@H]1[C@@H]1O[C@]13[C@]1(O[C@H]1C[C@H]1c4c(C(=O)c5ccccc5)oc(OC(=O)c5ccccc5)c4CC[C@@]13C)[C@@H]2O", "K-562 leukemia", "%", -12.5],
  ["O=C(CCCCCNC1=CC(=O)c2ccccc2C1=O)NCCC[Te]c1ccccc1", "K-562 leukemia", "%", 32.7],
  ["C[C@]12CC[C@H]3[C@@H](CC[C@]4(O)C[C@@H](O[C@@H]5O[C@H](CO)[C@@H](O[C@@H]6OC[C@@H](O)[C@H](O)[C@H]6O)[C@H](O)[C@H]5O)CC[C@]34C=O)[C@@]1(O)CC[C@@H]2C1=CC(=O)OC1", "K-562 leukemia", "%", 4.28],
  ["COC[C@@H]1C[C@@]2(C)[C@@H](CC[C@@H]3[C@@H]2CC[C@@]2(C)[C@H]3CC[C@]2(C)O)CC1=O", "K-562 leukemia", "%", 85.8],
  ["Cc1cnc(/C=C/C(=O)O)cc1-c1cc2c(cc1C)C(C)(C)CCC2(C)C", "K-562 leukemia", "%", 109],
  ["CC[C@H](C)[C@H](NC(=O)c1ccccn1)C(=O)N(C)[C@H](C[C@@H](OC(C)=O)c1nc(C(=O)N[C@@H](Cc2ccccc2)C[C@H](C)C(=O)OC)cs1)C(C)C", "K-562 leukemia", "%", 10.8],
  ["C[N+]12CN3CN(CN(C3)C1)C2", "K-562 leukemia", "%", 198],
  ["C[C@@]12CC=C3c4nc(Nc5cccc(O)c5)sc4CC[C@]3(C)[C@H]1CC[C@]1(C)C(=O)CC[C@@H]21", "K-562 leukemia", "%", 4.81],
  ["O=P1(NCCCl)OCCCN1CCCl (stereo not drawn)", "K-562 leukemia", "%", 95.8],
  ["COc1ccc(C(=O)c2sc3nc4c(cc3c2N)N2CCC4CC2)cc1OC", "K-562 leukemia", "%", 73.3],
  ["Fc1ccc(C2=CCNCC2)cc1", "K-562 leukemia", "%", 108],
  ["COc1ccc(C(=O)c2cc(OC)c(OC)c(OC)c2)cc1OC(C)=O", "K-562 leukemia", "%", 10.4],
  ["COC(=O)[C@@H](C)C[C@H](Cc1ccccc1)NC(=O)c1csc([C@@H](C[C@H](C(C)C)N(C)C(=O)C2(NC(=O)[C@H]3CCCCN3C)CCC2)OC(C)=O)n1", "K-562 leukemia", "%", 2.16],
  ["C[C@]12C[C@@H](CO)[C@H](O)C[C@@H]1CC[C@@H]1[C@@H]2CC[C@]2(C)[C@@H](O)CC[C@@H]12", "K-562 leukemia", "%", 74.7],
  ["Clc1cccc(Cl)c1Cl", "K-562 leukemia", "%", 84.9],
  ["CCCCCCCC[n+]1ccc2ccccc2c1", "K-562 leukemia", "%", 22.6],
  ["COC(=O)[C@@H](C)C[C@H](Cc1ccccc1)NC(=O)c1csc([C@@H](C[C@H](C(C)C)N(C)C(=O)[C@@H](NC(=O)[C@H]2CCCCN2C)C2CCCCC2)OC(C)=O)n1", "K-562 leukemia", "%", -0.636]
]}
